Assign melting point to each entry below.

Worked cases, melting point given:
COMPOUND	REPORTED_MEASUREMENT
CS(=O)(=O)c1ccc(-c2cnn(-c3cccc(Cl)c3)c(=O)c2Sc2ccccn2)cc1	110 to 114 °C
NS(=O)(=O)c1ccc(-c2cnn(CC(F)(F)F)c(=O)c2-c2ccc(F)cc2)cc1	193 to 195 °C
CC(C)CCOc1c(-c2ccc(S(C)(=O)=O)cc2)cnn(-c2ccc(F)cc2)c1=O	117 to 120 °C

Query molecule follows.
Exercise: Which measured melting point value corresponds to "CS(=O)(=O)c1ccc(-c2cnn(CC=C(Cl)Cl)c(=O)c2-c2ccc(F)cc2)cc1" ?
Solution: 150 to 152 °C

meta.source: patent US20020028938A1
